Property: T/C; scope: individual compounds
- Test system: nude mice, LX-1 lung xenograft intrarenal, tumor weight T/C
- ASSAY SUMMARY: NCI In Vivo Anticancer Drug Screen. Data for tumor model Human Lung LX-1 Xenograft (intrarenal inoculation) in NU/NU Swiss (nude) mice
- CONDITION DETAILS: endpoint: mean tumor weight change; dose: 200.0 mg/kg/injection; schedule: Q01DX010 (sc); vehicle: Klucel (hydroxypropylcellulose) (HPC); higher = larger tumour
Results filed as inconclusive are left out.

- COMPOUND: "C=C(NC(=O)C(=C)NC(=O)c1csc(C2=NC3c4csc(n4)C4NC(=O)c5csc(n5)C(C(C)(O)C(C)O)NC(=O)C5CSC(=N5)/C(=C/C)NC(=O)C(C(C)O)NC(=O)c5csc(n5)C3(CC2)NC(=O)C(C)NC(=O)C(=C)NC(=O)C(C)NC(=O)C(C(C)CC)NC2C=Cc3c(C(C)O)cc(nc3C2O)C(=O)OC4C)n1)C(N)=O (configuration not stated)"
  T/C: "90 % of control"
- COMPOUND: "CC1CN=C(c2ccc(NC(=O)c3ccc(C(=O)Nc4ccc(C5=NCC(C)N5)cc4)cc3)cc2)N1 (configuration not stated)"
  T/C: "94 % of control"
- COMPOUND: "CCCC(=O)OCc1cc(=O)n(C)c2c3c4c(cc12)c(C)cc(=O)n4CO3"
  T/C: "63 % of control"
- COMPOUND: "Cc1ccc2c(ccc(CC(=S)[S-])[n+]2C)c1"
  T/C: "207 % of control"
- COMPOUND: "COc1c(CNC(=O)CCl)cc2[nH]c(C)cc2c1CNC(=O)CCl"
  T/C: "52 % of control"
- COMPOUND: "O=c1[nH]c(=O)n(C2CC(O)C(CO)O2)cc1Br (configuration not stated)"
  T/C: "35 % of control"
- COMPOUND: "COC1C(O)C(C)OC(OC2C(Oc3cccc4c(O)c5c(=O)oc6ccc(C)c7c(=O)oc(c34)c5c67)OC(C)C(O)C2O)C1O (configuration not stated)"
  T/C: "54 % of control"

---

- Test system: nude mice, LX-1 lung xenograft intrarenal, tumor weight T/C
- ASSAY SUMMARY: NCI In Vivo Anticancer Drug Screen. Data for tumor model Human Lung LX-1 Xenograft (intrarenal inoculation) in NU/NU Swiss (nude) mice
- CONDITION DETAILS: endpoint: mean tumor weight change; dose: 0.25 mg/kg/injection; schedule: Q01DX010 (sc); vehicle: saline; higher = larger tumour
Results filed as inconclusive are left out.

- ITEM SMILES: "CC[C@]1(O)C[C@H]2CN(CCc3c([nH]c4ccccc34)[C@@](C(=O)OC)(c3cc4c(cc3OC)N(C)[C@H]3[C@@](O)(C(=O)OC)[C@H](OC(C)=O)[C@]5(CC)C=CCN6CC[C@]43[C@@H]65)C2)C1"
  T/C: "52 % of control"
- ITEM SMILES: "COc1cc([C@@H]2c3cc4c(c(O)c3C[C@H]3COC(=O)[C@@H]32)OCO4)cc(OC)c1OC"
  T/C: "91 % of control"
- ITEM SMILES: "COc1cc2c(c(OC)c1OC)-c1ccc(OC)c(=O)cc1[C@@H](NC(C)=O)CC2"
  T/C: "87 % of control"
- ITEM SMILES: "O=NNc1ccccn1"
  T/C: "309 % of control"
